This collection of values is drawn from PubChem BioAssay AID1259418.

biological target: T. gondii ME49Luc in IFN-y HeLa, luciferase, 72 h; test: T. gondii growth inhibition with IFN-gamma, dose response, cell-based, ME49Luc, HeLa, luciferase, 72 h (AID 1259418)
Records with an inconclusive call do not appear. Calls of active or inactive are those of the source.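 Rule for the calls: active = fitted half-maximal concentration of signal decrease at or below twice the sample's top tested concentration; inconclusive = flat curve between -70 and -30 percent, or poor fit; inactive = flat within 30 percent, signal rise, or potency above limit.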 Starred links: 1 amine or outer side, 2 acyl side, 3 side chain; linkers in the order of their positions; H or OH if unused. Non-standard residues stand in square brackets, D forms with d. Residues, ends and D or L forms follow the SMILES beside them. Groups on a side chain read outwards from the residue. *: point of attachment. Ethylenediamine = C(CN[*:2])N[*:1]; Hyp = O=C(O)[C@@H]1C[C@@H](O)CN1; Phg = N[C@H](C(=O)O)c1ccccc1; CO = O=C([*:1])[*:2]; Bn = c1ccc(C*)cc1
API: response.call in active, inactive

compound	classification
CCOc1ccccc1C(=O)N1CCC2(CC1)Nc1ccc(Cl)cc1-n1cccc12	active

[Q] Please let me know the test result on file for CC(C)(Cc1ccc2ccccc2c1)NC[C@@H](O)COc1cccc(Cl)c1C#N .
[A] active

[Q] Hi team, can someone confirm the assay call for Cc1nc(CCNC(=O)[C@H]2CCCN2C(=O)c2cccc(F)c2)cs1 ?
[A] active

[Q] Short answer needed: outcome of this test for Cc1ccccc1S(=O)(=O)N1CC[C@H]2[C@H](CO)Nc3ccc(-c4ccc(F)cc4)cc3[C@H]21 ?
[A] active

[Q] Please let me know the test result on file for CN(C)CCNC(=O)c1c2c(NCc3cccnc3)ncnc2n2ccccc12 .
[A] active

[Q] So what was the verdict on COC(=O)c1ccccc1NC(=O)COc1nc(C)nc2ccccc12 in this test?
[A] active

[Q] Hi team, can someone confirm the assay call for COc1ccc(-c2nc(CN(c3ccccc3OC)S(=O)(=O)c3ccc(C)cc3)c(C)o2)cc1 ?
[A] active

[Q] Please indicate how the test categorized Fc1cccnc1OC1COC2(CCN(Cc3ccsc3)CC2)C1 (configuration not stated) .
[A] active

[Q] Please let me know the test result on file for Cc1ccc(-n2ncc3c(NCc4cccc(Cl)c4)ncnc32)c(C)c1 .
[A] active

[Q] Test call, this compound: Cc1ccc(S(=O)(=O)Nc2ccc3c(c2)C(=O)N([C@@H](C)CO)C[C@H](C)[C@H](CN(C)Cc2ccc(C(F)(F)F)cc2)O3)cc1
[A] active

[Q] Record lookup: outcome of this test for CSc1cccc(NC(=O)CN2CCC3(CC2)N=C(c2cccc(Cl)c2)C(=O)N3)c1 ?
[A] active

[Q] Fill in: this test's call for COCCN(CCOC)C(=O)c1cc2c(c3ccccc3n2CC2CC2)n1-c1ncccn1 is ___
[A] active

[Q] Tell me the recorded outcome of this test for CS(=O)(=O)N1CC(=O)N2[C@H](C1)[C@@H](c1ccc(C#CCC3CCCC3)cc1)[C@@H]2CO .
[A] active

[Q] What was the test verdict on NCCCC[C@@H]1NC(=O)[C@@H](Cc2c[nH]c3ccccc23)NC(=O)[C@H](c2ccccc2)NC(=O)[C@@H]2C[C@@H](OC(=O)NCCN)CN2C(=O)[C@H](Cc2ccccc2)NC(=O)[C@H](Cc2ccc(OCc3ccccc3)cc2)NC1=O (cyclo([Hyp]([CO-Ethylenediamine])[Phg][dW]KY(Bn)F)) ?
[A] active

[Q] Assay result, entry Clc1ccc(-c2nc(N3CCC(c4ccccc4)C3)c3ccccc3n2)cc1 (configuration not stated) — outcome?
[A] active

[Q] Check the results log: what was the call for COc1ccc(-c2nc(CN(c3cccc(OC)c3)S(=O)(=O)c3ccc(C)cc3)c(C)o2)cc1 ?
[A] active

[Q] Recorded call for COc1ccc(OCC(=O)N2CCC3(CC2)Nc2ccc(Cl)cc2-n2cccc23)cc1 ?
[A] inactive

###

biological target: T. gondii ME49Luc in IFN-y HeLa, luciferase, 72 h; experiment: T. gondii growth inhibition with IFN-gamma, dose response, cell-based, ME49Luc, HeLa, luciferase, 72 h (AID 1259418)
Records with an inconclusive call do not appear.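 The calls were made as follows: active = fitted half-maximal concentration of signal decrease at or below twice the sample's top tested concentration; inconclusive = flat curve between -70 and -30 percent, or poor fit; inactive = flat within 30 percent, signal rise, or potency above limit.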
Answer with one of the outcomes active, inactive

Examples with answers:
In [3]: df
Out[3]:
                                   compound  classification
0  COc1ccc(S(=O)(=O)N(Cc2nc(-c3ccccc3OC)oc2C)c2ccccc2OC)cc1          active
1       COCCCNc1nc(-c2ccc(OC)cc2)nc2ccccc12          active
2  C(=C\c1ccc(C2[C@@H]3CN(Cc4nccs4)C[C@H]2N3)cc1)/c1ccccc1 (some centres not stated)          active
3  COc1cccc(NC(=O)N2CC(=O)N3[C@H](CO)[C@H](c4ccc(C#CCC5CCCC5)cc4)[C@@H]3C2)c1          active
4  Cc1ccc(Cn2c(=O)c3nn(C)cc3n3c(=O)n(Cc4nc(-c5ccccc5)oc4C)nc23)cc1          active
5  COc1ccccc1C(=O)Nc1ccc(-c2nc(-c3ccccc3)co2)cc1          active
6  Cc1ccc(-c2nc(Cn3nnc(-c4nc(-c5cccs5)no4)c3C)c(C)o2)cc1          active
7  Cc1ccc(NC(=O)N2CCN(Cc3nc(-c4cccc(Cl)c4)oc3C)CC2)cc1F          active
8  O=C(CCC1N=C2c3ccccc3N=C(SCc3ccccc3F)N2C1=O)NCc1cccs1 (configuration not stated)          active
9  O=C1NCC(=O)N2CCN(C(=O)Nc3cc(Cl)cc(Cl)c3)CC12 (configuration not stated)          active

[Q] Fill in: this test's call for O=C(Nc1cccc(F)c1)N1CCCCN2[C@H](CO)[C@@H](c3ccc(C#Cc4cccnc4)cc3)[C@H]2C1 is ___
[A] active

[Q] Test call, this compound: O=C(O)CC1CCC(c2ccc(-c3ccc(Nc4ccc(C(F)(F)F)nc4)cn3)cc2)CC1 (configuration not stated)
[A] active

[Q] So what was the verdict on CCOc1ccc(N(Cc2nc(-c3ccc(OC)cc3)oc2C)S(=O)(=O)c2cccs2)cc1 in this test?
[A] active

###

target: T. gondii ME49Luc in IFN-y HeLa, luciferase, 72 h; test: T. gondii growth inhibition with IFN-gamma, dose response, cell-based, ME49Luc, HeLa, luciferase, 72 h (AID 1259418)
Records with an inconclusive call do not appear.
measuredMetric: AC50

// known answers, use as guide
>>> print(df.to_string())
                          structurenotation  measuredmetric   result
0  Cc1cc(C(=O)Nc2ccc3c(c2)C(=O)N(C)[C@H]2CC[C@@H](CC(=O)NCc4ccc(-c5ccccc5)cc4)O[C@@H]2CO3)no1            AC50  20.8 µM
1  COc1ccc(N(Cc2nc(-c3ccccc3)oc2C)S(=O)(=O)c2ccccc2C)cc1            AC50  11.6 µM
2  COc1ccc(CC(=O)Nc2ccc3c(c2)CCC(=O)N3C)c(Cl)c1            AC50  21.2 µM
3             CCc1ccccc1-c1cccc(-n2cnnc2)c1            AC50  19.9 µM
4  COCCCN(Cc1ccco1)c1nc(-c2ccc(OC)cc2)nc2ccccc12            AC50  16.9 µM
5  Cc1ccc(S(=O)(=O)N2CCC3(CC2)NCCN=C3NC2CCCCCC2)cc1C            AC50  18.6 µM
6  Cc1ccc(-c2nc(CN3CCN(C(=O)Nc4ccc(C)c(F)c4)CC3)c(C)o2)cc1            AC50  8.58 µM
7  CCc1cnc(N2[C@H](CO)[C@@H](c3ccc(C#Cc4ccccc4F)cc3)[C@@H]2C#N)s1            AC50  21.3 µM

Just so you know, measured AC50 for COc1ccc(-c2ccc([C@H]3[C@H]4CN(Cc5ccccc5)CC(=O)N4[C@H]3CO)cc2)cc1 came out at 21 µM

molecule COc1ccc(CNC2=NCCNC23CCN(S(=O)(=O)c2ccc(C)cc2C)CC3)cc1 , AC50 observed: 18.6 µM

Reported AC50 of COc1ccccc1-c1nc(CN(c2ccc(C)cc2)S(=O)(=O)c2cccs2)c(C)o1 : 30.4 µM

Reported AC50 ( O=S(=O)(c1ccccc1)N(CC(F)(F)F)c1ccc(C(O)(C(F)(F)F)C(F)(F)F)cc1 ) = 19 µM

###

molecular target: T. gondii ME49Luc in IFN-y HeLa, luciferase, 72 h; assay: T. gondii growth inhibition with IFN-gamma, dose response, cell-based, ME49Luc, HeLa, luciferase, 72 h (AID 1259418)
Records with an inconclusive call do not appear. Activity calls are given as the source filed them.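 Rule for the calls: active = fitted half-maximal concentration of signal decrease at or below twice the sample's top tested concentration; inconclusive = flat curve between -70 and -30 percent, or poor fit; inactive = flat within 30 percent, signal rise, or potency above limit.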
Please reply with one of these outcomes: active, inactive

[Q] Recorded test outcome, item CCCNC(=O)c1cc(-c2ccn(CC3CC3)n2)n2ccccc12
[A] active

[Q] Would you mind telling me which call this test gave Cc1cc(C)cc(S(=O)(=O)N2CCC3(CC2)NCCN=C3NCc2ccc(C(F)(F)F)cc2)c1 ?
[A] active

[Q] Query: recorded result category for CN1C(=O)CCc2cc(NC(=O)Cc3ccc(Cl)cc3)ccc21 in this test
[A] active

[Q] // return assay outcome for Cc1cccc(CNC2=NCCNC23CCN(S(=O)(=O)c2cc(C)cc(C)c2)CC3)c1
[A] active

[Q] What did the test return for CCc1nc(OCC(=O)Nc2ccc(F)c(Cl)c2)c2ccccc2n1 ?
[A] inactive

[Q] Call for entry CCC(C(=O)N1CCC2(CC1)Nc1ccc(Cl)cc1-n1cccc12)c1ccccc1 (configuration not stated) :
[A] inactive

[Q] // outcome(item) with item = NC(N)=N/N=C/c1c(Cl)cccc1Cl
[A] active
